Source of measurements: ChEMBL document CHEMBL4138097

Biological target: UniProt:P37288
Sequence (P37288 whole entry, looked up): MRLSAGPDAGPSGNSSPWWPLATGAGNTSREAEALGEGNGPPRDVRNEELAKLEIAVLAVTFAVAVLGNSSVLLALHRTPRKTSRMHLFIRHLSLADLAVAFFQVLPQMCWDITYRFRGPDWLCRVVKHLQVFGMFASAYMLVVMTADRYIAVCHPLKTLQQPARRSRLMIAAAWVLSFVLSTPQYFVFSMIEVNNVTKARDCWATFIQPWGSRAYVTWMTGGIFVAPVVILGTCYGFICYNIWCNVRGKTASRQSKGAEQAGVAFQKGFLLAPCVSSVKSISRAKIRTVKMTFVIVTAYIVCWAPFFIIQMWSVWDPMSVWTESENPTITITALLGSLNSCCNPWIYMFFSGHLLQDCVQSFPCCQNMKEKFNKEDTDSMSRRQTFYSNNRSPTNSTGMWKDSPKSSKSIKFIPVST
Experiment: Antagonist activity at human vasopressin 1a receptor expressed in CHO cell membranes assessed as inhibition of AVP-induced IP1 accumulation by measuring IP1 level at 100 nM measured after 1 hr by fluorescence assay relative to control
Format: functional, cell-based
Parameters: scale not given: the % may be the effect or the level left
parameter-measured: Activity (%)
# unit: % | format: bare number

Consider the reported Activity for these compounds:
O=S(=O)(Nc1ccnn1-c1ccccn1)c1ccc(Cl)cc1 ... 103
Cn1nccc1NS(=O)(=O)c1ccc(C(F)(F)F)cc1 ... 86.5
Cn1nccc1NS(=O)(=O)c1ccc(Cl)cc1 ... 100

Lab note: next compound to report on.
Prompt line: Looking for the measured Activity of `O=S(=O)(Nc1ccnn1-c1ccccn1)c1ccc(C(F)(F)F)cc1` , can you help?
Response line: 84.8
